Where do the numbers come from? From the supplement of paper PMC13380429.

System: HepG2
Experiment: cell viability relative to DMSO; higher = less toxic
Settings: 72 h; 10000 nM
Answer each item with its documented cell viability.
One number for each entry, in %.

Worked examples, 5 compounds total:
-- ask Fill in the blank: the reported cell viability of CN1C(C)(C)CCCC1(C)C is ____.
-- reply 84.7

-- ask Fill in the blank: the reported cell viability of NC(=O)[C@H]1CCS[C@@H]2C[C@]3(CCCN3C(=O)Cc3ccc(NC(=O)COc4ccc(Cl)cc4Cl)cc3)C(=O)N12 is ____.
-- reply 40.5

-- ask Fill in the blank: the reported cell viability of CN(C)c1ccc(-c2nc3c(N4CCN(CC(=O)Nc5nccs5)CC4)c(Cl)cnc3[nH]2)cc1 is ____.
-- reply 98.2

-- ask Fill in the blank: the reported cell viability of CC(C)[N+](C)(CCC(C(N)=O)(c1ccccc1)c1ccccc1)C(C)C [isopropamide-iodide] is ____.
-- reply 102

-- ask Fill in the blank: the reported cell viability of O=C(Nc1cccnn1)N1CCC(=Cc2cccc(Oc3ccc(C(F)(F)F)cn3)c2)CC1 is ____.
-- reply 34.1

# batch size: 4; output cell viability per entry
1. COc1cccc(C(=O)CCN[C@@H](C)[C@H](O)c2ccccc2)c1
2. CS[C@H]1SC[C@H]2C(=O)N(C)[C@@H](C(C)C)C(=O)OC[C@@H](NC(=O)c3cnc4ccccc4n3)C(=O)N[C@@H](C)C(=O)N(C)[C@@H]1C(=O)N(C)[C@@H](C(C)C)C(=O)OC[C@@H](NC(=O)c1cnc3ccccc3n1)C(=O)N[C@@H](C)C(=O)N2C
3. Nc1nccc(Oc2ccc(NC(=O)c3cn(COP(=O)(O)O)cc(-c4ccc(F)cc4)c3=O)cc2F)c1Cl
4. CC(=O)N(C)c1cccc(-c2ccnc3c(C(=O)c4cccs4)cnn23)c1

-- reply
[79.8, 7.7, 35, 77.3]
